Just for reference, patent US20200239573A1 is where these values come from.

SYSTEM UNDER TEST: human PD-1 expressed on cells (CHO human PD-1 cells) (human, UniProt Q15116 21-288)
Sequence (Q15116 21-288): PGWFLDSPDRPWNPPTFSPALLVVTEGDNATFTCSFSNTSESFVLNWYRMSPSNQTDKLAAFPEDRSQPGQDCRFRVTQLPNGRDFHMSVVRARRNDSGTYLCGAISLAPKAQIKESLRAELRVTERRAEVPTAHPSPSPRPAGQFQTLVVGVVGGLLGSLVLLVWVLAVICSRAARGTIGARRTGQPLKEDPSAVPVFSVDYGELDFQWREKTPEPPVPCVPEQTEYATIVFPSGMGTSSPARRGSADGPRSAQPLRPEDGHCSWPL
METHOD SUMMARY: cell-based or functional assay
QUANTITY: Reporter Assay EC50 (µM)
Give the value in µM but do not write µM after it.

IN: Report Reporter Assay EC50 for Humabody® 1.53 (VHH, human VH single domain antibody) VHH: QVQLVESGGGLVKPGGSLRLSCAASGFTFSDNSMTWMRQAPGKGLEWVSYISSGGSVKFYADSVKGRFTISRDNAKNSLYLQMNSLRADDTAVYYCAREAPLRLGESPHDAFDIWGQGTMVTVSS please.
OUT: 0.014

IN: Again, but for Humabody® 1.47 (VHH, human VH single domain antibody) VHH: QVQLVESGGGLVKPGGSLRLSCAASGFTFSDNSMSWMRQAPGKGLEWVSYISSGGGVIFYADSVKGRFTISRDNAKNSLYLQMNSLRADDTAVYYCAREAPLRLGESPHDAFDIWGQGTMVTVSS
OUT: 0.027

IN: Continue with Humabody® 1.92 (VHH, human VH single domain antibody) VHH: EVQLVESGGGLVKPGGSLRLSCAASGFTFSDESMTWMRQAPGKGLEWVSYISSGGGVKFYADSVKGRFTISRDNAKNSLYLQMNSLRAEDTAVYYCAREAPLRLGESPHDAFDISGQGTMVTVSS
OUT: 0.013

IN: Then Humabody® 1.65 (VHH, human VH single domain antibody) VHH: QVQLVESGGGLVKPGGSLRLSCAASGFTFSDSSMTWMRQAPGKGLEWVSYISSGGGVKFYADSVKGRFTISRDNAKNSLYLQMNSLRADDTAVYYCAREAPLRLGESPHDAFDISGQGTMVTVSS ?
OUT: 0.011
